Entries and their IC50 values follow.
Molecular target: PRMT5-MTA (Homo sapiens)
Sequence (O14744 whole entry): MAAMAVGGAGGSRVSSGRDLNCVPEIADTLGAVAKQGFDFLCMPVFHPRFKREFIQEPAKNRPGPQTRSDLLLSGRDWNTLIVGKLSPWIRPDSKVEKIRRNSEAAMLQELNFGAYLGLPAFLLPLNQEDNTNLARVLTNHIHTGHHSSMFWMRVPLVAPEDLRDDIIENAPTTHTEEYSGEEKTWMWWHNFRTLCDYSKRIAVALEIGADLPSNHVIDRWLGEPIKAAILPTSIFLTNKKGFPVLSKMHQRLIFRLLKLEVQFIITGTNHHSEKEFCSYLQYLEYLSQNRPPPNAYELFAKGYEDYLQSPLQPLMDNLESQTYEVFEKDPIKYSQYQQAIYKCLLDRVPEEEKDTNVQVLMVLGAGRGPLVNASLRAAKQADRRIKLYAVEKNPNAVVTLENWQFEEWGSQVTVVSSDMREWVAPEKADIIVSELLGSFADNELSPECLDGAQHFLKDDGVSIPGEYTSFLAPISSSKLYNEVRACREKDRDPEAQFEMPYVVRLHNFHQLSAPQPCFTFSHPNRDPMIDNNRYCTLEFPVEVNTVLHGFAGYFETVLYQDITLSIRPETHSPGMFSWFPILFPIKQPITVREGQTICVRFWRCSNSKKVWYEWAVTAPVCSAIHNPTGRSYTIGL
Sequence (Q9BQA1 whole entry partner): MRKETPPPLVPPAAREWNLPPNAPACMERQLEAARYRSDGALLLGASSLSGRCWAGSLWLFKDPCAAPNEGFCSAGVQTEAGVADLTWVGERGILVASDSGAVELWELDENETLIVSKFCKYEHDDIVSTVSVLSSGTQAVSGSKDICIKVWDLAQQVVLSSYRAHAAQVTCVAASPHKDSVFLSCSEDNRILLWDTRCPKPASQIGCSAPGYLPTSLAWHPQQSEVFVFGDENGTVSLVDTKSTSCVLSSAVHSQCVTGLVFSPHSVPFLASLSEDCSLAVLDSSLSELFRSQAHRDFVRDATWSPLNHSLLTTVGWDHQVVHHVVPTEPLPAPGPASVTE
Experiment: biochemical
Conditions: IC50 (nM), PRMT5+MTA enzyme activity inhibition; PRMT5/MET50 protein 1 nM, 5'-deoxy-5'-adenosine 1 µM, SAM 2.5 µM, Histone H4 substrate 5 nM
Numbers only here, please. The scale is nM.

IN: In one line, give reported IC50 of the entry CC(c1ncccn1)N(Cc1ccc(C(F)(F)F)cn1)C(=O)c1ccc(N=C(N)Nc2ccccc2)nc1 (stereo not drawn) .
OUT: 7.9

IN: Write down IC50 measured for item CNC(N)=Nc1ccc(C(=O)N(Cc2ccc(C(F)(F)F)cn2)C(C)c2ccccc2Cl)cn1 (stereo not drawn)
OUT: 3.3

IN: Answer with the recorded IC50 for the compound listed here: `CNC(N)=Nc1ccc(C(=O)N(Cc2ccc(-c3cnc4c(cnn4C)c3)cn2)[C@H](C)c2ccccc2F)cn1`
OUT: 6.5

Data credit: patent EP4763847A1
